Reported kon values for the following binders.
# experimentalTarget: T1, Human CD44v6 iso4-Fc (human, UniProt P16070-4 21-606, limits assumed, chemically biotinylated in the form called Bio-CD44v6)
# T1 construct: Custom ordered from ProMab, produced in HKB11 cells; The biotinylated and the plain form are kept as one molecule; also called Bio-CD44v6; bio-CD44v6
# T1 sequence (P16070 other isoform, or with tags, fused parts or gaps limits assumed): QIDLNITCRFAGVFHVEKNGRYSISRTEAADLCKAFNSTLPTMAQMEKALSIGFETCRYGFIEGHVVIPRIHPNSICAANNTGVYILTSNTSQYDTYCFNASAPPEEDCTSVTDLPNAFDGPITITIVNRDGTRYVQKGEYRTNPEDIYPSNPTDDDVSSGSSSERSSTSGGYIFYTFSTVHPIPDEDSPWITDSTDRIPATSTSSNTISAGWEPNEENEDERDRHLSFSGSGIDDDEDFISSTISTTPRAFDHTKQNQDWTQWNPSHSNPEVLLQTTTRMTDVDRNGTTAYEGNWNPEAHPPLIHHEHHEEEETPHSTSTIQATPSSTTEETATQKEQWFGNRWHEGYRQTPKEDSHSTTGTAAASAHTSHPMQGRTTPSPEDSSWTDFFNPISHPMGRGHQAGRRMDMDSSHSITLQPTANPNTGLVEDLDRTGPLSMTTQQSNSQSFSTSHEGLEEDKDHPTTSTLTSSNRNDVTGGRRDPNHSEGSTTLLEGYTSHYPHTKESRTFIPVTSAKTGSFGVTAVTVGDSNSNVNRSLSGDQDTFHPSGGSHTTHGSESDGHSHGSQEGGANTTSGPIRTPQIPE
# assayExplanation: SPR SCK, antibody immobilised, CD44v6-Fc injected

[[record]]
binder = "AL-MN114-465 IgG1 LALA IAHA (antibody, V domains shown, Human IgG1 LALA IAHA, kappa) VH: EVQLLESGGGLVQPGGSLRLSCAASGFSFGSYAMSWVRQAPGKGLEWVSAISAGGSSTFYADSVKGRFTISRDNSKNTLYLQMNSLRAEDTAVYYCARHYYSDSDYRSSAAMDYWGQGTLVTVSS VL: DIQMTQSPSSLSASVGDRVTITCRASQSISSYLNWYQQKPGKAPKLLIYTASSLQSGVPSRFSGSGSGTDFTLTISSLQPEDFATYYCQQDLYLLTFGQGTKLEIK"
parametermeasured = "kon"
reportedresult = "170000 M⁻¹ s⁻¹"

[[record]]
binder = "AL-MN114-71 IgG1 LALA IAHA (antibody, V domains shown, Human IgG1 LALA IAHA, kappa) VH: EVQLLESGGGLVQPGGSLRLSCAASGFSFRSFAMSWVRQAPGKGLEWVSAISGGGSSTFYADSVKGRFTISRDNSKNTLYLQMNSLRAEDTAVYYCARHYYSDSDYRSSAAMDYWGQGTLVTVSS VL: DIQMTQSPSSLSASVGDRVTITCRASQSISSYLNWYQQKPGKAPKLLIYAASTLQSGVPSRFSGSGSGTDFTLTISSLQPEDFATYYCQQDLYLLTFGQGTKLEIK"
parametermeasured = "kon"
reportedresult = "230000 M⁻¹ s⁻¹"

[[record]]
binder = "AL-MN114-132 IgG1 LALA IAHA (antibody, V domains shown, Human IgG1 LALA IAHA, kappa) VH: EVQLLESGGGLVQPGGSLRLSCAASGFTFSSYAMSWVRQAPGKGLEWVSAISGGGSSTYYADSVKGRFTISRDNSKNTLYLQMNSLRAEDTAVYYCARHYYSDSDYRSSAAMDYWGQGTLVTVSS VL: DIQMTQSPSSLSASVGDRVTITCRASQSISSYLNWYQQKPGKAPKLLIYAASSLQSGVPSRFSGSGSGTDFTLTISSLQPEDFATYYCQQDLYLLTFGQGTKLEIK"
parametermeasured = "kon"
reportedresult = "140000 M⁻¹ s⁻¹"


Turning to the following binder.
Query string: Which kon value belongs to AL-MN114-132 IgG1 LALA (antibody, V domains shown, item 20 iii) gives heavy 77 / light 96 without naming the format) VH: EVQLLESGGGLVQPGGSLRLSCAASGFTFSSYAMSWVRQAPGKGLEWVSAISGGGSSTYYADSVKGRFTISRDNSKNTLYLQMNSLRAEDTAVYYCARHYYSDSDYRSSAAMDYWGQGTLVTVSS VL: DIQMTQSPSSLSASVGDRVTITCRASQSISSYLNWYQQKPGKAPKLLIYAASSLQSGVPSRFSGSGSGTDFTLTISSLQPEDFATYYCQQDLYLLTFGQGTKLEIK ?
Result string: 1.9e+06 M⁻¹ s⁻¹

Values from patent US20250340662A1
